# Tested on: OVCAR-3 ovarian
# assay.remarks: NCI tumour cell line growth inhibition, 48 h
Here, each record is paired with measured GI50 data.

structure.smiles.string: O=C1Nc2ccccc2/C1=C\c1c[nH]c2ccc(Br)cc12
system.name: OVCAR-3 ovarian
GI50: 2.29 µM

In one line, give reported GI50 of the entry `O=C1/C(=C\c2ccc(Cl)cc2)CCOc2c1ccc1ccccc21` .
39.4 µM

Give a short answer stating reported GI50 for `O=C1NC(=NCc2ccccc2Br)S/C1=C\c1ccc2ncccc2c1` .
10 µM

* * *

# Test system: UACC-257 melanoma
# assay.remarks: NCI tumour cell line growth inhibition, 48 h
observable: TGI

Examples from the recorded data:
compound: C[C@]12CCC3c4ccc(O)cc4CC[C@H]3C1CC(=O)NC2=O (some centres undefined)
observable: TGI
observed.result: > 10 µM
//
compound: [C-]#[O+].[C-]#[O+].[C-]#[O+].[C-]#[O+].[O-]C(c1ccccc1[PH+]1OC(C(F)(F)F)(C(F)(F)F)c2ccccc21)(C(F)(F)F)C(F)(F)F.[Re] (centres undefined)
observable: TGI
observed.result: 4.28 µM
//
compound: CN1CCN(c2ccc3[nH]c(C4=C(O)c5nc(CCl)n(C)c5C(=O)C4=O)nc3n2)CC1
observable: TGI
observed.result: 31.9 µM
//
compound: COc1ccc(C(CC(C)=O)c2c(O)c3ccccc3oc2=O)cc1OC (centres undefined)
observable: TGI
observed.result: > 100 µM
//
compound: S=c1nc2sc3c(c2c(Nc2ccccc2)[nH]1)CCCC3
observable: TGI
observed.result: > 100 µM

Name the recorded TGI of the item CC(C)C1(Cl)CCC2C3(C)CCCC(C)(C(=O)O)C3CC(Cl)C2(Cl)C1Cl (centres undefined) in your answer.
> 100 µM

Give the measured TGI for `O=[N+]([O-])/C(C(Cl)=C(Cl)Cl)=C1\NCCS1`
> 100 µM

Please look at this compound and report its TGI: COC(=O)[C@@]12C(=O)CCC(=O)C1C1C(=CC2C)O[C@@H]2OC3(CCCCC3)O[C@H]12 (some centres undefined)
> 100 µM

Supply TGI value. Item: COC(=O)/C(=N/NC(N)=O)C(C(=O)C(=O)Nc1ccc(C)cc1)c1nc2ccc(C(=O)c3ccccc3)cc2[nH]c1=O (centres undefined)
> 100 µM

Tell me its TGI given `O=[N+]([O-])c1ccccc1N=Nc1c(O)[nH]c2ccc(S(=O)(=O)O)cc12` as the entry.
> 100 µM

Let me know recorded TGI for CC(C)(C)c1ccc(S(=O)(=O)N2C(c3cccc(C4CC[C@@H](C(=O)O)N4S(=O)(=O)c4ccc(C(C)(C)C)cc4)c3)CC[C@H]2C(=O)O)cc1 (some centres undefined) , thanks.
> 100 µM
